Entries and their kinase still bound, per cent of control
biological target: MAPK8 (human); test: KINOMEscan competition binding; conditions: compound 10.0 µM
READOUT_NAME: kinase still bound, per cent of control (%)

CCN(CCO)CCCOc1ccc2c(Nc3cc(CC(=O)Nc4cccc(F)c4)[nH]n3)ncnc2c1 = 59
O=c1[nH]c2ccccc2n1C1CCN(Cc2ccc(-c3nc4cc5[nH]cnc5cc4nc3-c3ccccc3)cc2)CC1 = 79
CCN1CCN(Cc2ccc(NC(=O)c3ccc(C)c(/C=C/c4cnc5[nH]ccc5c4OC)c3)cc2C(F)(F)F)CC1 = 19
CCCS(=O)(=O)Nc1ccc(F)c(C(=O)c2c[nH]c3ncc(Cl)cc23)c1F = 96
CC1=C(C(=O)Nc2cc3cn[nH]c3cc2F)C(c2ccc(C(F)(F)F)cc2)CC(=O)N1 (centres undefined) = 85
COc1ccc(N(C(=O)Oc2cc(C(=O)Nc3cccc(C(F)(F)F)c3)ccc2C)c2ccnc(Nc3ccc(N4CCN(C)CC4)cc3)n2)c(OC)c1 = 100
COc1cc2ncnc(Nc3cccc(Cl)c3)c2cc1OC = 38
CC(=O)c1c(C)c2cnc(Nc3ccc(N4CCNCC4)cn3)nc2n(C2CCCC2)c1=O = 1.6
N#C/C(=C1/Nc2ccccc2S1)c1ccnc(NCCc2cccnc2)n1 = 0
